Biological target: T1, VEGF (human, UniProt P15692-4 27-191, limits assumed)
T1 construct: Biotinylated in the KDR-IgG ELISA, amine-coupled to the chip in BIAcore; also called biotinylated VEGF; vascular endothelial growth factor
T1 sequence (P15692 other isoform, or with tags, fused parts or gaps limits assumed): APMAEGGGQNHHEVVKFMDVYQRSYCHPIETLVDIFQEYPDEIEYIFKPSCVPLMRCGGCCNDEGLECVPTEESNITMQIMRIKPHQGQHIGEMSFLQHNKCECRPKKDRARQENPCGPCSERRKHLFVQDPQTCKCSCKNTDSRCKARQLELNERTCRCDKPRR
Assay: competitive phage-ELISA, relative to pY0192
Description: In such an assay, phages were first serially diluted to determine a fractional saturation titer which was then held constant and used to incubate with varying concentrations of VEGF (starting at 200 nM to 0 nM) in solution. […] Thereafter, the phage solution was removed and the remaining bound phages were detected with a solution of rabbit anti-phage antibody mixed with goat anti-rabbit conjugate of horse radish peroxidase. […] Optical density at 492 nm was measured on a spectrophotometric plate reader. […]
Mark YES for IC50 (mut)/IC50 (wt) under 2 ratio, NO if at or over.

[
  {
    "BINDER": "pY0192 VL R24A (Fab, V domains shown, Ala-scan variant of pY0192; Fab on phage) VH: EVQLVESGGGLVQPGGSLRLSCAASGYTFTNYGINWVRQAPGKGLEWVGWINTYTGEPTYAADFKRRFTFSLDTSKSTAYLQMNSLRAEDTAVYYCAKYPHYYGSSHWYFDVWGQGTL VL: DIQLTQSPSSLSASVGDRVTITCAANEQLSNYLNWYQQKPGKAPKVLIYFTSSLHSGVPSRFSGSGSGTDFTLTISSLQPEDFATYYCQQYSTVPWTFGQGTKVEIKR",
    "LABEL_VALUE": "YES"
  },
  {
    "BINDER": "pY0192 VH K65A (Fab, V domains shown, Ala-scan variant of pY0192; Fab on phage) VH: EVQLVESGGGLVQPGGSLRLSCAASGYTFTNYGINWVRQAPGKGLEWVGWINTYTGEPTYAADFARRFTFSLDTSKSTAYLQMNSLRAEDTAVYYCAKYPHYYGSSHWYFDVWGQGTL VL: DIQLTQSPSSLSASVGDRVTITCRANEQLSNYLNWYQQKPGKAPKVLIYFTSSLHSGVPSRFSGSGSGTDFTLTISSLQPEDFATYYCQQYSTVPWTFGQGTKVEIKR",
    "LABEL_VALUE": "YES"
  }
]

Here's an entry: pY0192 VH I51A (Fab, V domains shown, Ala-scan variant of pY0192; Fab on phage) VH: EVQLVESGGGLVQPGGSLRLSCAASGYTFTNYGINWVRQAPGKGLEWVGWANTYTGEPTYAADFKRRFTFSLDTSKSTAYLQMNSLRAEDTAVYYCAKYPHYYGSSHWYFDVWGQGTL VL: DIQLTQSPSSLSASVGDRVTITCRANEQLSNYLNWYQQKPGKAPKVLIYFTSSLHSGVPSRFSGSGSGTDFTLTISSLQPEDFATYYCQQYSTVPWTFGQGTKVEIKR . Is its IC50 (mut)/IC50 (wt) below 2 ratio? NO

Lab note: IC50 (mut)/IC50 (wt) threshold 2 ratio. Does this binder come in strictly under it? pY0192 VL Y91A (Fab, V domains shown, Ala-scan variant of pY0192; Fab on phage) VH: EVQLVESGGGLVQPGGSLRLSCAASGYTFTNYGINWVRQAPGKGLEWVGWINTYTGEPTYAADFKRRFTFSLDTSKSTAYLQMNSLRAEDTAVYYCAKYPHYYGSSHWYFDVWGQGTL VL: DIQLTQSPSSLSASVGDRVTITCRANEQLSNYLNWYQQKPGKAPKVLIYFTSSLHSGVPSRFSGSGSGTDFTLTISSLQPEDFATYYCQQASTVPWTFGQGTKVEIKR NO

In plain terms, does pY0192 VH I34A (Fab, V domains shown, Ala-scan variant of pY0192; Fab on phage) VH: EVQLVESGGGLVQPGGSLRLSCAASGYTFTNYGANWVRQAPGKGLEWVGWINTYTGEPTYAADFKRRFTFSLDTSKSTAYLQMNSLRAEDTAVYYCAKYPHYYGSSHWYFDVWGQGTL VL: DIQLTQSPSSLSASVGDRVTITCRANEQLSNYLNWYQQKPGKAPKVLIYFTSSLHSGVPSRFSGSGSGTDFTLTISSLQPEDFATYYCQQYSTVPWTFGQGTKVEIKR come in under 2 ratio for IC50 (mut)/IC50 (wt)? NO
